# shrunken log2 fold change per record follows
tested on: Escherichia coli TOP10; experiment: shrunken log2 fold change of peptide-encoding DNA abundance (4.5 h post-induction vs induction); higher = less antimicrobial activity (less host growth inhibition); details: time post-induction: 4.5 h; library: site-saturation at positions 5, 18, 19, 20
Respond using a number only.

See these solved cases before continuing.
RRIRSRPPRLPRPRPRPFYMPRP :: -0.561
RRIRYRPPRLPRPRPRPRDDPRP :: -0.241

## Task Reported shrunken log2 fold change, sequence RRIRTRPPRLPRPRPRPQSPPRP : ____
## Result -0.0309

## Task GET /values?readout=shrunken log2 fold change&item= RRIRVRPPRLPRPRPRPYQFPRP
## Result -0.0508

## Task Please report the recorded shrunken log2 fold change for RRIRNRPPRLPRPRPRPHTFPRP .
## Result -0.0139

## Task Fill blank: measured shrunken log2 fold change of the sequence RRIRYRPPRLPRPRPRPNDNPRP is ____.
## Result -0.635

## Task I am curious: what shrunken log2 fold change value has been reported for RRIRSRPPRLPRPRPRPADFPRP ?
## Result -0.0669

## Task // query shrunken log2 fold change value for entry RRIRCRPPRLPRPRPRPCDYPRP
## Result -0.0812

## Task So what's the measured shrunken log2 fold change for this one? RRIRARPPRLPRPRPRPPMFPRP
## Result 0.283

## Task Please report the recorded shrunken log2 fold change for RRIRIRPPRLPRPRPRPFYDPRP .
## Result -0.202

## Task // query shrunken log2 fold change value for entry RRIRPRPPRLPRPRPRPLNTPRP
## Result -0.482

## Task Would you mind telling me what shrunken log2 fold change value was observed for RRIRWRPPRLPRPRPRPDIKPRP ?
## Result -0.323

## Task May I ask what shrunken log2 fold change has been recorded for RRIRARPPRLPRPRPRPSWAPRP ?
## Result 0.106

## Task I am curious: what shrunken log2 fold change value has been reported for RRIRERPPRLPRPRPRPMLLPRP ?
## Result -0.166

## Task Reported shrunken log2 fold change for RRIRMRPPRLPRPRPRPRSQPRP : what is it?
## Result 0.108

* * *

Measured shrunken log2 fold change, listed per entry for reference.
test system: Escherichia coli TOP10; assay: shrunken log2 fold change of peptide-encoding DNA abundance (4.5 h post-induction vs induction); higher = less antimicrobial activity (less host growth inhibition); conditions: time post-induction: 4.5 h; library: site-saturation at positions 5, 18, 19, 20
Keep it simple and answer with nothing but the number.

Example cases with answers are listed next.
RRIRKRPPRLPRPRPRPYRWPRP :: -0.164
RRIRERPPRLPRPRPRPMCEPRP :: 0.0303
RRIRSRPPRLPRPRPRPQTGPRP :: 0.0318
RRIRWRPPRLPRPRPRPSDEPRP :: -0.117
RRIRNRPPRLPRPRPRPDHPPRP :: -0.0362
RRIRERPPRLPRPRPRPYVMPRP :: -0.401

Moving on to the next sequence.
## Task Give shrunken log2 fold change (Escherichia coli TOP10) of the following sequence: RRIRDRPPRLPRPRPRPKMMPRP
## Result -0.154

* * *

test system: Escherichia coli TOP10; assay: shrunken log2 fold change of peptide-encoding DNA abundance (4.5 h post-induction vs induction); higher = less antimicrobial activity (less host growth inhibition); conditions: time post-induction: 4.5 h; library: site-saturation at positions 5, 18, 19, 20;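 also: peptides expressed intracellularly from a pBAD plasmid library in pooled LB shake-flask culture, induced with 0.3% L-arabinose, DNA abundance read by NGS, three biological replicates, DESeq2 with apeglm shrinkage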
Reported shrunken log2 fold change is given for each of the following sequences.
Lab note: jot down the number only; don't add units.

See these solved cases before continuing.
RRIRYRPPRLPRPRPRPKEHPRP :: -0.366
RRIRNRPPRLPRPRPRPWALPRP :: -0.0675

## Task Which shrunken log2 fold change reading was recorded for the sequence RRIRERPPRLPRPRPRPRKSPRP ?
## Result -0.131
